// data source = the supplement of paper PMC10065799

Test system: c-Abl (mouse)
assay method text: phosphorylation enrichment, bacterial display (enrichment ratio); higher = better substrate or ligand; peptides without Tyr show the background

>  <entry sequence>
CRVEPYGENFN [APOA4_Y310_R305C]

>  <phosphorylation enrichment>
1.1

$$$$
>  <entry sequence>
ADFFDYGHGLS [KHDRBS3_Y304_YF]

>  <phosphorylation enrichment>
0.76

$$$$
>  <entry sequence>
KLFFIYTPGTT [SLC27A4_Y245_S247P_YF]

>  <phosphorylation enrichment>
0.848

$$$$
>  <entry sequence>
LNCIYYKDQTG [RS1_Y166_W163C]

>  <phosphorylation enrichment>
1.08

$$$$
>  <entry sequence>
LGRGKYSEVFE [CSNK2A1_Y50]

>  <phosphorylation enrichment>
0.924

$$$$
>  <entry sequence>
VNKLVYENING [FRS2_Y306]

>  <phosphorylation enrichment>
0.524

$$$$
>  <entry sequence>
THLAPYSDELR [APOA1_Y190]

>  <phosphorylation enrichment>
0.521

$$$$
>  <entry sequence>
RGERPYGGGGG [FUS_Y526_R522G]

>  <phosphorylation enrichment>
0.397

$$$$
>  <entry sequence>
MASTSYDYCRV [BST2_Y6]

>  <phosphorylation enrichment>
0.956

$$$$
>  <entry sequence>
AEYGLYGAMVR [VSX2_Y222]

>  <phosphorylation enrichment>
0.908

$$$$
>  <entry sequence>
FSEVRYMKEPF [HIPK4_Y170_V171M_YF]

>  <phosphorylation enrichment>
0.66

$$$$
>  <entry sequence>
RLQEDYDHSFF [ESD_Y258_G257D_YF]

>  <phosphorylation enrichment>
1.19

$$$$
>  <entry sequence>
RLASVYTKRCS [CPT2_Y508_P504L]

>  <phosphorylation enrichment>
0.643

$$$$
>  <entry sequence>
EIELAYRRRPP [GRIN2B_Y1109]

>  <phosphorylation enrichment>
0.437

$$$$

---

assayed target: MERTK (UniProt Q12866)
Sequence (Q12866 whole entry, looked up): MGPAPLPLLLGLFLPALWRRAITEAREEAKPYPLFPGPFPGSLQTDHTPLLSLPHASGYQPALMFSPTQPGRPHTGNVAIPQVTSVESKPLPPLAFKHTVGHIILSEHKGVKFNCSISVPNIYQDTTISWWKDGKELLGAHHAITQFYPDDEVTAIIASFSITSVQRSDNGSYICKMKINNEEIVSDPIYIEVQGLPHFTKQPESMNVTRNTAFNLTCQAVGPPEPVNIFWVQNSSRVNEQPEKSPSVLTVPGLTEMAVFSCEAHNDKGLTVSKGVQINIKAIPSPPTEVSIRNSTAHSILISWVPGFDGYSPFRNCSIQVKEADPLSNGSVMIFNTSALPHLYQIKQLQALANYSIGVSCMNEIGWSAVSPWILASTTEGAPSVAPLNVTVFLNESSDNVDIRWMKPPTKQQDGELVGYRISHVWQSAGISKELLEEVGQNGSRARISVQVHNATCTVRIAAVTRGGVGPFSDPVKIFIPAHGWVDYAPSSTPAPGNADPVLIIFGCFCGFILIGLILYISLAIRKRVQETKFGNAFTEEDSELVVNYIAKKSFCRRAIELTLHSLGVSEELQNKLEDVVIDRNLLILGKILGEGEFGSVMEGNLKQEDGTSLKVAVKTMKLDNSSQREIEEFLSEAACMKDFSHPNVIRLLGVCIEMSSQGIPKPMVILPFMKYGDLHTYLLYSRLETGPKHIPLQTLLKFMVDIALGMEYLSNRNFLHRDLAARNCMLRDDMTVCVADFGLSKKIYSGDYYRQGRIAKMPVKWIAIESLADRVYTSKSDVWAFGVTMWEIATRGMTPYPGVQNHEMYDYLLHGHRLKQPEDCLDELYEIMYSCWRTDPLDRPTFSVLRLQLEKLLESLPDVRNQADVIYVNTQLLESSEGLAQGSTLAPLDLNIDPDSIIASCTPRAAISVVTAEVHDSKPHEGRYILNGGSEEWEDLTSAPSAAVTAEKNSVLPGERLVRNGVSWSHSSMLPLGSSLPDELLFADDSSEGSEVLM
assay method text: phosphorylation enrichment, bacterial display (enrichment ratio); higher = better substrate or ligand; peptides without Tyr show the background

>  <entry sequence>
PIPAAYNRFDQ [CDC73_Y290_YF]

>  <assayed target>
MERTK (UniProt Q12866)

>  <phosphorylation enrichment>
0.509

$$$$
>  <entry sequence>
HKLSYYEYDFE [BTK_Y40]

>  <assayed target>
MERTK (UniProt Q12866)

>  <phosphorylation enrichment>
3.67

$$$$
>  <entry sequence>
LYSGDYYRIQG [DDR2_Y740]

>  <assayed target>
MERTK (UniProt Q12866)

>  <phosphorylation enrichment>
19.3

$$$$
>  <entry sequence>
VKKNRYKDILP [PTPN12_Y64]

>  <assayed target>
MERTK (UniProt Q12866)

>  <phosphorylation enrichment>
0.592

$$$$

---

assayed target: Grb2 SH2 (UniProt P62993)
Sequence (P62993 whole entry, looked up): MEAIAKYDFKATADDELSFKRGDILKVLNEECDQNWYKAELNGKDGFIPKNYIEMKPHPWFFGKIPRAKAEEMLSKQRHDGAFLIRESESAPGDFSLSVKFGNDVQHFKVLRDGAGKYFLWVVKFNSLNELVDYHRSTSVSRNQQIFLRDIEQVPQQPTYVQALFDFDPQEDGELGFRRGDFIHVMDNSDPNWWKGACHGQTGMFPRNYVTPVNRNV
assay method text: SH2 binding enrichment of the phosphorylated peptide, bacterial display (enrichment ratio); higher = better substrate or ligand; peptides without Tyr show the background
Here the recorded SH2 binding enrichment is given for each entry.
observable: SH2 binding enrichment

>  <entry sequence>
KGTAGYTTVAV [RET_Y752_R749T]

>  <test result>
0.757

$$$$
>  <entry sequence>
CGTPEYRAPEI [PRKACA_Y205_L206R]

>  <test result>
0.767

$$$$
>  <entry sequence>
KDYETYQPFQN [CTNND2_Y1157]

>  <test result>
0.887

$$$$
>  <entry sequence>
VTAALYGCLYE [BTD_Y536_R538C]

>  <test result>
0.729

$$$$
>  <entry sequence>
SHMVNYQPYRK [TEX37_Y25_D24N]

>  <test result>
0.686

$$$$
>  <entry sequence>
HFIKLYEEKTG [PARP1_Y618_M615I]

>  <test result>
1.16

$$$$
>  <entry sequence>
CGTPTYLAPEV [CHEK2_Y390]

>  <test result>
0.878

$$$$
>  <entry sequence>
FFNSEYGELSE [FLT4_Y1337_YF]

>  <test result>
0.943

$$$$
>  <entry sequence>
LGRGKYSEVFE [CSNK2A1_Y50]

>  <test result>
0.739

$$$$
>  <entry sequence>
RSSGGYEPRGR [FUS_Y239]

>  <test result>
0.674

$$$$
>  <entry sequence>
ISRASYYRKGG [ALK_Y1282_Y1278S]

>  <test result>
0.655

$$$$
>  <entry sequence>
KKYFSYAWPFY [BRDT_Y291_H288Y]

>  <test result>
1.93

$$$$
>  <entry sequence>
EDASEYYENYI [PARP4_Y214_F215Y]

>  <test result>
0.857

$$$$
>  <entry sequence>
DSGKLYALDVL [INO80_Y1104]

>  <test result>
0.744

$$$$
>  <entry sequence>
NFDRVYIYHLR [MYOF_Y1137]

>  <test result>
1.23

$$$$
>  <entry sequence>
RVLKLYGCSPS [ASTL_Y279]

>  <test result>
0.895

$$$$
>  <entry sequence>
SGSIHYSHVPR [GLB1_Y57_R59H]

>  <test result>
0.745

$$$$
>  <entry sequence>
RDMNAYISPSP [MMAA_Y207_R209S]

>  <test result>
1.01

$$$$
>  <entry sequence>
DRSSLYLVAGP [KIAA1614_Y1083_N1078D]

>  <test result>
0.781

$$$$
>  <entry sequence>
LPSKDYAEVRR [HP_Y272_G276R]

>  <test result>
0.965

$$$$
>  <entry sequence>
LKRIAYFLCLR [LGI1_Y21_L26R]

>  <test result>
0.841

$$$$
>  <entry sequence>
AFEQQYSPIPR [NOX1_Y373]

>  <test result>
0.772

$$$$
>  <entry sequence>
HFGCVYHGTLL [MET_Y1093]

>  <test result>
0.98

$$$$
>  <entry sequence>
HLVLNYGVCVC [JAK2_Y613]

>  <test result>
0.796

$$$$
>  <entry sequence>
KWTVDYLGQVG [TYW5_Y48_S50G]

>  <test result>
1.04

$$$$

---

Test system: c-Abl (mouse)
assay method text: phosphorylation enrichment, bacterial display (enrichment ratio); higher = better substrate or ligand; peptides without Tyr show the background
Here the recorded phosphorylation enrichment is given for each entry.

>  <entry sequence>
IKAGAYDFPSP [CAMK2A_Y230]

>  <phosphorylation enrichment>
0.551

$$$$
>  <entry sequence>
AHLTEYLSTHY [UQCRC1_Y219_D215H]

>  <phosphorylation enrichment>
0.475

$$$$
>  <entry sequence>
ADSLRYIYPKL [EIF2B3_Y92]

>  <phosphorylation enrichment>
0.471

$$$$
>  <entry sequence>
VLRRVYVDFEG [KMT2B_Y1707]

>  <phosphorylation enrichment>
0.629

$$$$
>  <entry sequence>
ISDNAYQFMLT [MYH7_Y162_YF]

>  <phosphorylation enrichment>
1.09

$$$$
>  <entry sequence>
GRTGHYLCNAC [GATA1_Y223_D218G]

>  <phosphorylation enrichment>
0.375

$$$$
>  <entry sequence>
GLAELYEFKKK [CKAP5_Y1854_YF]

>  <phosphorylation enrichment>
0.451

$$$$
>  <entry sequence>
REGAKYVSHGT [ASS1_Y113_A118T]

>  <phosphorylation enrichment>
0.517

$$$$
>  <entry sequence>
DDPRTYQKYGY [OAS1_Y362_R361T]

>  <phosphorylation enrichment>
0.572

$$$$
>  <entry sequence>
KGLKVYVNGTL [ADGRD1_Y183_E178K]

>  <phosphorylation enrichment>
0.584

$$$$
>  <entry sequence>
FDAHNYHPLPV [OAT_Y55_G51D_YF]

>  <phosphorylation enrichment>
0.807

$$$$
>  <entry sequence>
EQYELYCEMGS [CBL_Y371]

>  <phosphorylation enrichment>
1.08

$$$$

---

assayed target: EPHB2 (UniProt P29323)
Sequence (P29323 whole entry, looked up): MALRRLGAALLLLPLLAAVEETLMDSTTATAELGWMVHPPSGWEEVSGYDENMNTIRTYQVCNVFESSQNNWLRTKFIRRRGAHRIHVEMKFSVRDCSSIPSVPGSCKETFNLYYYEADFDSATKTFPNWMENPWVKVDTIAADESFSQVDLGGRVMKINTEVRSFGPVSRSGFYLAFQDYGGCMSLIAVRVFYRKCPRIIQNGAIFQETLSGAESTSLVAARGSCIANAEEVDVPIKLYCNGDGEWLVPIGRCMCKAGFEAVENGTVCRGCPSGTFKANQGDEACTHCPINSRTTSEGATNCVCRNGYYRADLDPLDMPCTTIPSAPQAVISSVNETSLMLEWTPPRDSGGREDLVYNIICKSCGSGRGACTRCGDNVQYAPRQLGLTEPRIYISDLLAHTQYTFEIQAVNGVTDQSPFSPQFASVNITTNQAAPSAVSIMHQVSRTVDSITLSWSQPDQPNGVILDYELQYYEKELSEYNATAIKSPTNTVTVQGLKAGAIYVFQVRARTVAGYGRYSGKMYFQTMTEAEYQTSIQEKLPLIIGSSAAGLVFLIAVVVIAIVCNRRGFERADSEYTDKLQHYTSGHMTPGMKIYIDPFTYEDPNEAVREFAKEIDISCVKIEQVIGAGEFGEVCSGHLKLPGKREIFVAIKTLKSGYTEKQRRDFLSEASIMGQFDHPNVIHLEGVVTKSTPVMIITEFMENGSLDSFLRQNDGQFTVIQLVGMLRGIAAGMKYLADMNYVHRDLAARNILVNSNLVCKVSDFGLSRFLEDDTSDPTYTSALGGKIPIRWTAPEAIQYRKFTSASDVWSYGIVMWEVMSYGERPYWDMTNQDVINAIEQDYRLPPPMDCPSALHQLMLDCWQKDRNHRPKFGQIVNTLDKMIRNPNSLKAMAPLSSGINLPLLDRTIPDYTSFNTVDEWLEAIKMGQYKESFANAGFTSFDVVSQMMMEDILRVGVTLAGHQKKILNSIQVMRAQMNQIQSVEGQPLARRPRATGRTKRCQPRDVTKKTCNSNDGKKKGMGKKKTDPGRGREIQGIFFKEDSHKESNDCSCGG
assay method text: phosphorylation enrichment, bacterial display (enrichment ratio); higher = better substrate or ligand; peptides without Tyr show the background
Here the recorded phosphorylation enrichment is given for each entry.

>  <entry sequence>
CTTIHYNYMSN [TP53_Y234_C238S]

>  <assayed target>
EPHB2 (UniProt P29323)

>  <phosphorylation enrichment>
0.594

$$$$
>  <entry sequence>
FYRNVYHLASV [RBL1_Y796_K794N]

>  <assayed target>
EPHB2 (UniProt P29323)

>  <phosphorylation enrichment>
0.587

$$$$
>  <entry sequence>
CGTPEYRAPEI [PRKACA_Y205_L206R]

>  <assayed target>
EPHB2 (UniProt P29323)

>  <phosphorylation enrichment>
0.605

$$$$

---

assayed target: c-Src SH2
assay method text: SH2 binding enrichment of the phosphorylated peptide, bacterial display (enrichment ratio); higher = better substrate or ligand; peptides without Tyr show the background
Here the recorded SH2 binding enrichment is given for each entry.
observable: SH2 binding enrichment

>  <entry sequence>
IGSQRYQLGVR [RB1_Y446_K447Q]

>  <assayed target>
c-Src SH2

>  <test result>
0.66

$$$$
>  <entry sequence>
KNDSKYVVKGN [KIT_Y823_N822K]

>  <assayed target>
c-Src SH2

>  <test result>
0.572

$$$$
>  <entry sequence>
RQQEVYLLFKQ [RARRES1_Y159_D158V_YF]

>  <assayed target>
c-Src SH2

>  <test result>
0.853

$$$$
>  <entry sequence>
GMSQAYSFSQR [DES_Y5_S7F]

>  <assayed target>
c-Src SH2

>  <test result>
0.476

$$$$
>  <entry sequence>
CRVEPYGENFN [APOA4_Y310_R305C]

>  <assayed target>
c-Src SH2

>  <test result>
0.675

$$$$
>  <entry sequence>
HNVPIYEGYGL [ACTA1_Y168_A172G]

>  <assayed target>
c-Src SH2

>  <test result>
1.33

$$$$
>  <entry sequence>
SDMGQYQCLVF [AXL_Y115_T112M]

>  <assayed target>
c-Src SH2

>  <test result>
0.437

$$$$
>  <entry sequence>
YQLENYCNGGG [INS_Y108]

>  <assayed target>
c-Src SH2

>  <test result>
0.76

$$$$
>  <entry sequence>
LIGRRCDDPEV [HSPA9_Y128_Y128C]

>  <assayed target>
c-Src SH2

>  <test result>
0.431

$$$$
>  <entry sequence>
AIGYEYSEINI [SIGLEC12_Y588]

>  <assayed target>
c-Src SH2

>  <test result>
8.56

$$$$
>  <entry sequence>
ERLWDYGMSSS [F8_Y1728]

>  <assayed target>
c-Src SH2

>  <test result>
0.597

$$$$
>  <entry sequence>
SENPKYPEVGD [TMEM43_Y233]

>  <assayed target>
c-Src SH2

>  <test result>
0.482

$$$$
>  <entry sequence>
DCAAIYGNEPD [AKR1A1_Y50_E55D]

>  <assayed target>
c-Src SH2

>  <test result>
0.982

$$$$
>  <entry sequence>
LGRTRYQHVTG [MIPEP_Y510]

>  <assayed target>
c-Src SH2

>  <test result>
0.748

$$$$
>  <entry sequence>
PFTDPYFDFEI [ZC3H18_Y371_A368T_YF]

>  <assayed target>
c-Src SH2

>  <test result>
0.649

$$$$
>  <entry sequence>
PIDLYYLMDLS [ITGB2_Y131]

>  <assayed target>
c-Src SH2

>  <test result>
0.67

$$$$
>  <entry sequence>
HCEDGYPGGSD [CTNND1_Y221_Y217C]

>  <assayed target>
c-Src SH2

>  <test result>
0.64

$$$$
>  <entry sequence>
GKVADYIPQLP [GLS_Y249_A254P]

>  <assayed target>
c-Src SH2

>  <test result>
0.448

$$$$
>  <entry sequence>
EAESWYQTKYE [KRT75_Y342]

>  <assayed target>
c-Src SH2

>  <test result>
0.547

$$$$
>  <entry sequence>
EEGENYQKGEQ [CHGB_Y173_R178Q]

>  <assayed target>
c-Src SH2

>  <test result>
0.472

$$$$
>  <entry sequence>
TFRPPYYHRNC [HGD_Y333]

>  <assayed target>
c-Src SH2

>  <test result>
1.18

$$$$
>  <entry sequence>
LNCAGYCDALE [MTUS1_Y151]

>  <assayed target>
c-Src SH2

>  <test result>
7.11

$$$$
>  <entry sequence>
KNRDVYSSDFF [USP24_Y2134_YF]

>  <assayed target>
c-Src SH2

>  <test result>
0.588

$$$$
>  <entry sequence>
IGERTYGQVFK [CDK13_Y716_G714R_YF]

>  <assayed target>
c-Src SH2

>  <test result>
0.519

$$$$
>  <entry sequence>
LFDPDFMKVIL [CYP4A22_Y104_Y104F_YF]

>  <assayed target>
c-Src SH2

>  <test result>
0.463

$$$$
>  <entry sequence>
NSIGNYFKPWF [DHCR24_Y299_YF]

>  <assayed target>
c-Src SH2

>  <test result>
0.899

$$$$
>  <entry sequence>
IGVGSYSVCKR [RPS6KA3_Y433]

>  <assayed target>
c-Src SH2

>  <test result>
0.938

$$$$
>  <entry sequence>
VGTKRYMAPEV [ACVRL1_Y375]

>  <assayed target>
c-Src SH2

>  <test result>
0.511

$$$$
>  <entry sequence>
RVLKLYGCSPS [ASTL_Y279]

>  <assayed target>
c-Src SH2

>  <test result>
0.566

$$$$
>  <entry sequence>
MKNDLYQTPLH [NFKB1_Y582_R578K]

>  <assayed target>
c-Src SH2

>  <test result>
0.585

$$$$
>  <entry sequence>
HFIKLYEEKTG [PARP1_Y618_M615I]

>  <assayed target>
c-Src SH2

>  <test result>
0.872

$$$$
>  <entry sequence>
ANNEYYFRVCA

>  <assayed target>
c-Src SH2

>  <test result>
0.402

$$$$
>  <entry sequence>
TSGVVYKARNK [CDK2_Y19_Y15S]

>  <assayed target>
c-Src SH2

>  <test result>
0.565

$$$$
>  <entry sequence>
ASRKYYAMKIL [AKT3_Y174_G171R]

>  <assayed target>
c-Src SH2

>  <test result>
1.18

$$$$
>  <entry sequence>
LRNIDYYRLDG [ATRX_Y2083]

>  <assayed target>
c-Src SH2

>  <test result>
0.775

$$$$
>  <entry sequence>
VCDSDYSASRW [LRP5_Y1552]

>  <assayed target>
c-Src SH2

>  <test result>
0.586

$$$$
